tested on: DeltatarO mutant; experiment: S. aureus survival, RN4220 and DeltatarO strains – OD600, teichoic acid synthesis inhibitors, primary screen (AID 463173); conditions: S. aureus RN4220 wild type/DeltatarO growth, OD600, 18 h, stronger effect = lower value, screened at 18.75 µg/mL (by protocol)
The campaign covered roughly 52,000 compounds. About 4,300 (8.3%) were called active. The sample as a whole holds a higher share of actives than the screen did.
Friendly reminder: survival below 60% is Satisfied, at or above is Not satisfied.

Exam item: is_below(survival, 60%) for CCCN(C(=O)c1cc2c(Cl)nc3ccccc3c2s1)c1cccc(C)c1 ?
Marked response: Satisfied

Exam item: For COc1ccc(C(=O)NCC(c2cccnc2)N2CCN(c3ccccc3OC)CC2)cc1 (stereo not given) , is the recorded survival below the cut-off of 60%?
Marked response: Not satisfied

Exam item: Field: below-cutoff. Rule: recorded survival strictly less than 60%. Subject: O=c1c(S(=O)(=O)c2cccc(Cl)c2)cn(Cc2ccccc2)c2cc(N3CCCCC3)c(F)cc12
Marked response: Not satisfied

Exam item: hey, is survival for CCc1ccccc1N(C)C(=O)c1cc2c(Cl)nc3ccc(C)cc3c2s1 lower than 60% or not?
Marked response: Satisfied

Exam item: Input CC1(C(=O)C[n+]2cccc(C(N)=O)c2)CCC(=O)O1 (stereo not given) ; condition: survival strictly below 60%. Does it hold?
Marked response: Not satisfied

Exam item: Confirm or reject: survival of Cc1ccc(Cl)cc1N(C)C(=O)c1cc2c(Cl)nc3ccccc3c2s1 lies strictly below 60%
Marked response: Satisfied

Exam item: Is survival strictly under 60% for the entry Cc1ccc2nc(Cl)c3cc(C(=O)N(C)C4CCCCC4)sc3c2c1 ?
Marked response: Satisfied

Exam item: Input CCN(CCCNC(=O)c1cc2c(Cl)nc3ccccc3c2s1)Cc1ccccc1 ; condition: survival strictly below 60%. Does it hold?
Marked response: Not satisfied

###

test system: DeltatarO mutant; test: S. aureus survival, RN4220 and DeltatarO strains – OD600, teichoic acid synthesis inhibitors, primary screen (AID 463173); conditions: S. aureus RN4220 wild type/DeltatarO growth, OD600, 18 h, stronger effect = lower value, screened at 18.75 µg/mL (by protocol)
About 4,300 (8.3%) of roughly 52,000 compounds were called active. The full list was thinned out, with actives kept by preference.
Exercise: state measured survival for each of the compounds provided.
# output: bare number, implied unit %

COc1ccc(C(=O)COC(=O)c2cc(-c3cccs3)nc3ccccc23)cc1 yielded survival of 58

So for COc1ccc(-c2cc(C(=O)Oc3ccc(Cl)cc3)c3ccccc3n2)cc1 , the logged survival turned out to be 49

So for O=C(CSc1c2c(nc3ccccc13)CCC2)Nc1ccc(F)cc1F , the logged survival turned out to be 69

Briefly, survival measured for COc1ccc(-c2cc(C(=O)Oc3ccc(Br)cc3)c3ccccc3n2)cc1 : 48

Lab note: Cc1ccc(C(=O)COC(=O)c2cc(-c3ccccc3)nc3ccccc23)cc1C gave survival of 125

Looking up CCc1cccc(NC(=O)CCS(=O)(=O)c2cc(Br)cc3c2N(C(C)=O)CC3)c1 , I found its survival recorded as 144

Per the records, this compound ( Cc1ccc(C(=O)COC(=O)c2cc(-c3ccc(Cl)cc3)nc3ccccc23)cc1 ) has survival equal to 136

Lookup result for COc1cccc(NC(=O)CCN2C(=O)c3ccccc3Sc3ncccc32)c1 ; measured survival: 102

The reported value for CCC(C(=O)Nc1cc(OC)ccc1OC)n1nc(-c2ccccc2)c2c(c1=O)CCCC2 (stereo not given) in terms of survival is 35

Record CCC(C(=O)Nc1ccc(C(=O)OC)cc1)n1nc(-c2ccc(C)cc2)c2c(c1=O)CCCC2 (stereo not given) , field survival: 102
